System: CAOV3
assay-info: Primary qHTS to identify gynecologic anti-cancer compounds using libraries of approved drugs and bioactive compounds (AID 1345084); further: nearly all actives have a fitted effect of over 55% in size
experimental-parameters: Gynecologic cancer cell panel viability, ATPlite luminescence, 48 h; series mostly up to 57.5 µM
Records with an inconclusive call do not appear. Activity calls are given as the source filed them. The call rests on the fitted dose curve; in most records, active means well fitted cell-killing curve with a large enough effect; inconclusive means small, poorly fitted or top-dose-only effect, or effect the other way; inactive means flat fitted curve, though single readings scatter.
metric-name: activity change, negative = cytotoxicity

• COc1cc(/C=C/C(=O)O[C@H]2[C@H](OC(=O)/C=C/c3cc(OC)c(O)c(OC)c3)O[C@H](CO[C@@H]3O[C@H](CO)[C@@H](O)[C@H](O)[C@H]3O)[C@@H](O)[C@@H]2O)ccc1O = inactive
• C[C@@H]1CC[C@]2(C(=O)O[C@@H]3O[C@H](CO)[C@@H](O)[C@H](O)[C@H]3O)CC[C@]3(C)C(=CCC4[C@@]5(C)C[C@@H](O)[C@H](O)C(C)(C)C5CC[C@]43C)C2[C@]1(C)O (stereo partly drawn) = inactive
• C=C1C(=O)O[C@H]2[C@H]1[C@@H](OC(=O)C(C)CO)C[C@@]1(C)[C@H](O)CCC(=O)[C@H]21 (stereo partly drawn) = inactive
